FYI, the data here is from patent US8613931B2.

- target under test: monoclonal antibody MV-001
- assay remarks: ELISA, peptide-BSA coated, MV-001
- test context: scale: code

binder | Binding Capacity
ILFRHGC [p4390] | 3
SLMRHSSC [p4721] | 2
NSSELRHC [p4752] | 3
YEFRHAQC [p4748] | 3
